assay: chemical genetic growth profiling, strain panel (AID 1159580);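 also: tested at 20 µM; growth read once vehicle control cultures reached saturation at 30 °C; 1 = growth at the plate median or of vehicle wells; lower values mean less growth of the strain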; details: S. cerevisiae deletion strains, growth OD, locus YMR307W, strain GAS1, stronger effect = lower value
The whole screen tested about 5,500 compounds, of which about 2,000 (36%) were called active. Not shown: some 18% with an inconclusive outcome. Some of the results follow.
With a cut-off of 1, any normalized growth strictly below it is called 1; any normalized growth meeting it or above is called -1.

{"columns": ["compound", "qualitative-label"],
 "data": [
  ["CCCCCCCCCc1ccc(O)cc1", 1],
  ["CC(=O)Nc1ccc(OC(=O)c2ccccc2O)cc1", 1],
  ["NCCc1c[nH]c2ccc(O)cc12", -1],
  ["O=C(c1cc(O)c(O)c([N+](=O)[O-])c1)c1ccccc1F", 1],
  ["CC(N)Cc1ccc(O)cc1 (centres undefined)", -1],
  ["Nc1ccc(C(=O)Oc2ccccc2)c(O)c1", 1],
  ["NCCc1ccc(O)c(O)c1", -1],
  ["CCCCCCc1ccc(O)cc1O", 1],
  ["Nc1ccc(C(=O)O)c(O)c1 (tested in a mixture with another compound)", 1]
]}

Each recorded value in this set is attributed to PubChem BioAssay AID1159580.
